The values you see were collected from patent US8609836B2.

System: MDA-MB-231
Assay Notes: Cellular proliferation assay (Alamar blue), MDA-MB-231
Assay type: cell-based
Condition Parameters: Homo sapiens, 10% FCS, 72 hours with compound, Alamar blue 24 h, read-out: MDA/MB231 (cellular proliferation assay, Table 4) (converted)
Listing: IC50 of selected molecules
Attribute Measured: IC50

| Molecule | Test Value |
| --- | --- |
| O=C1NCCNCc2ccc(cc2)-c2ccnc(n2)Nc2ccc(N3CCOCC3)c(c2)CN2C[C@H](O)C[C@@H]12 [Compound 166] | > 10 µM |
| CN(C)Cc1cc2cc(c1)Nc1nccc(n1)-c1cccc(c1)CNC(=O)[C@@H]1CCCN1C2 [Compound 30] | 0.257 µM |
| COc1ccc2cc1CN(C)CCCNC(=O)CN1CCN(CC1)Cc1cc(Br)cc(c1)Nc1nccc-2n1 [Compound 144] | > 10 µM |

----------
System: A2780
Assay Notes: Cellular proliferation assay (Alamar blue), A2780
Assay type: cell-based
Condition Parameters: Homo sapiens, 10% FCS, 72 hours with compound, Alamar blue 24 h, read-out: A2780 (cellular proliferation assay, Table 4) (converted)

| Compound | Relation Sign | IC50 (nM) |
| --- | --- | --- |
| COc1ccc2cc1CN(C)CCCNC(=O)CN1CCN(CC1)Cc1cc(cc(NC(C)C)c1)Nc1nccc-2n1 [Compound 130] | > | 10000 |
| O=C1NCc2cccc(c2)-c2ccnc(n2)Nc2cc(CNC3CCCCC3)cc(c2)CN2CCC[C@@H]12 [Compound 36] | = | 550 |
| O=C1NCCCOc2ccc(cc2)-c2ccnc(n2)Nc2ccc(N3CCOCC3)c(c2)CN2CCC1CC2 [Compound 92] | = | 525 |
| CN1CCNC(=O)CN2CCN(CC2)Cc2cc(Br)cc(c2)Nc2nccc(n2)-c2ccc(cc2)C1 [Compound 129] | > | 10000 |

----------
Measured On: CDK4/CyclinD1 (h) (Homo sapiens, UniProt P11802)
Sequence (P11802 whole entry): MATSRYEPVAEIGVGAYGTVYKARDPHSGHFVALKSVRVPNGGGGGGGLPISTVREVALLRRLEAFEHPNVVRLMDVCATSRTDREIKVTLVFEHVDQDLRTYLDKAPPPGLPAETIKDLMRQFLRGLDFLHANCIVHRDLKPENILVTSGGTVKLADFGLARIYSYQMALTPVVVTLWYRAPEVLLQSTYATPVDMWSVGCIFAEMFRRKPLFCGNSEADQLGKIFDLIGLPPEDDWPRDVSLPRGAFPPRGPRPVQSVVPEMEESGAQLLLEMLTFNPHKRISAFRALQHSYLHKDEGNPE
Sequence (P24385 whole entry partner): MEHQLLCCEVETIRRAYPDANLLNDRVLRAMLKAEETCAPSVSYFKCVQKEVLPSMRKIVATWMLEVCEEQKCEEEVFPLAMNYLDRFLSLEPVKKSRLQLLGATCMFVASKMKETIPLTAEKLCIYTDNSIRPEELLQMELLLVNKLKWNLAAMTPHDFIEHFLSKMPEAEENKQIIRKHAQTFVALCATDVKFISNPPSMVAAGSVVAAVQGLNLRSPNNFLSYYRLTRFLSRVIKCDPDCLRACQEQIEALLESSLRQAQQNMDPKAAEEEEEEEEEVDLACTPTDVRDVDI
Assay Notes: CDK4/CyclinD1 human kinase inhibition, SPA with GST-pRb substrate
Format: biochemical
Condition Parameters: read-out: CDK4 pIC50 (converted)
Listing: IC50 of selected compounds

| Smiles Structure | IC50 |
| --- | --- |
| O=C(NC1CCCCC1)c1ccc2cc1CN1CCC[C@H]1C(=O)NCc1cccc(c1)-c1ccnc(n1)N2 | 5.62 µM |
| COc1cc2cc(c1)Nc1nccc(n1)-c1ccc(OC)c(c1)CN(C)CCCNC(=O)C1CCN(CC1)C2 | > 10 µM |
| CN(C)Cc1cc2cc(c1)Nc1nccc(n1)-c1cccc(c1)CNC(=O)[C@@H]1CCCN1C2 | 0.891 µM |
| CN1CCNC(=O)CN2CCN(CC2)Cc2cccc(c2)Nc2nccc(n2)-c2ccc(cc2)C1 | > 10 µM |
| CC(C)Nc1cc2cc(c1)Nc1nccc(n1)-c1ccc(cc1)CN(C)CCNC(=O)[C@@H]1CCCN1C2 | > 10 µM |
| COc1ccc2cc1CN(C)CCCNC(=O)[C@@H]1CCCN1Cc1cc(cc(NC(C)C)c1)Nc1nccc-2n1 | > 10 µM |
| O=C1NCc2cccc(c2)-c2ccnc(n2)Nc2ccc(cc2)CN2C[C@H](O)C[C@@H]12 | > 10 µM |
| COc1ccc2cc1CN(C)CCNC(=O)CN1CCN(CC1)Cc1cc(cc(NC(C)C)c1)Nc1nccc-2n1 | > 10 µM |
| O=C1NCc2cccc(c2)-c2ccnc(n2)Nc2cc(CNC3CCOCC3)cc(c2)CN2CCC[C@@H]12 | 1.23 µM |
| COc1ccc2cc1CN(C)CCNC(=O)[C@H](CO)NCc1cc(cc(N3CCOCC3)c1)Nc1nccc-2n1 | > 10 µM |
| COc1ccc2cc1CN(C)CCNC(=O)C1CCN(CC1)Cc1cc(cc(NC(C)C)c1)Nc1nccc-2n1 | > 10 µM |
| O=C1NCCNc2cc(ccn2)-c2ccnc(n2)Nc2ccc(N3CCOCC3)c(c2)CN2CCC1CC2 | 7.24 µM |
| COc1cc2cc(c1)Nc1nccc(n1)-c1ccc(OC)c(c1)CN(C)CCCNC(=O)CN1CCN(CC1)C2 | > 10 µM |
| COc1ccc2cc1CN1CCN(CC1)CC(=O)N(C)CCN(C)c1ccc(cn1)-c1ccnc(n1)N2 | > 10 µM |
| COc1cc2cc(c1)Nc1nccc(n1)-c1ccc(cc1)CN(C)CCNC(=O)CN1CCN(CC1)C2 | > 10 µM |
| O=C1NCc2cccc(c2)-c2ccnc(n2)Nc2cc(CNC3CCCCC3)cc(c2)CN2CCC[C@@H]12 | 1.2 µM |
| COc1ccc2cc1CN(C)CCCNC(=O)C1CCN(CC1)Cc1cc(cc(NC(C)C)c1)Nc1nccc-2n1 | > 10 µM |
| O=C1NCc2cc(ccc2N2CCOCC2)Nc2nccc(n2)-c2cccc(c2)CN2CCC[C@@H]12 | 4.47 µM |
| O=C1NCCOc2cccc(c2)-c2ccnc(n2)Nc2ccc(N3CCOCC3)c(c2)CN2CCC1CC2 | 3.63 µM |
| COc1ccc2cc1CN(C)CCNC(=O)[C@@H]1CCCN1Cc1cccc(c1)Nc1nccc-2n1 | > 10 µM |
| O=C1NCc2cccc(c2)-c2ccnc(n2)Nc2cccc(c2)CN[C@H]1Cc1ccccc1 | > 10 µM |
| COc1cc2cc(c1OC)CN1CCC[C@H]1C(=O)NCc1cccc(c1)-c1ccnc(n1)N2 | > 10 µM |
| CN(C)CCNCc1cc2cc(c1)Nc1nccc(n1)-c1cccc(c1)CNC(=O)[C@@H]1CCCN1C2 | 1 µM |
| COc1cc2cc(c1)Nc1nccc(n1)-c1ccc(cc1)CN(C)CCCNC(=O)CN1CCN(CC1)C2 | > 10 µM |
| O=C1CN2CCN(CC2)Cc2cccc(c2)Nc2nccc(n2)-c2cccc(c2)CN1 | 6.17 µM |
| COc1ccc2cc1CN(C)CCCNC(=O)CN1CCN(CC1)Cc1cc(cc(N3CCOCC3)c1)Nc1nccc-2n1 | > 10 µM |
| COc1cc2cc(c1)Nc1nccc(n1)-c1ccc(OC)c(c1)CN(C)CCNC(=O)C1CCN(CC1)C2 | > 10 µM |
| CN1CCCNC(=O)[C@@H]2CCCN2Cc2cc(Br)cc(c2)Nc2nccc(n2)-c2ccc(cc2)C1 | > 10 µM |
| COCCNC(=O)c1cc2cc(c1)Nc1nccc(n1)-c1cccc(c1)CNC(=O)[C@@H]1CCCN1C2 | 3.63 µM |
| O=C1NCc2cccc(c2)-c2ccnc(n2)Nc2ccc(cc2)CN2CCC[C@@H]12 | 7.41 µM |
